Numbers sourced from ChEMBL document CHEMBL4513216.

Listed here are compounds together with their documented cytotoxicity at 10 µM.
MEASUREMENT_PROTOCOL: Toxicity liver stage against HepG2, at 10uM
Assay type: cell-based
Parameters: test concentration 10 uM, cell line HepG2-A16-CD81EGFP
COND: human, HepG2-A16-CD81EGFP cells; read-out: INHIBITION
I only need the number, in %, no unit after it.

Previously resolved entries follow.
c1cnn(CCCO[C@@H]2CN(C3CCOCC3)[C@@H]3CCCO[C@@H]32)c1: 4.56
COc1c(C)cnc(CN(C)C2CCCCC2)c1C: 20.5
Cc1ccc(-c2cc(CNC(=O)N3CCC(O)CC3)on2)cc1: -4.62

Please indicate cytotoxicity at 10 µM recorded for `Cc1cc(NCCNc2ccc(C#N)cn2)nc(C)n1`
4.42

Name the recorded cytotoxicity at 10 µM of the compound listed here: `O=C(CN1CCOCC1)N(c1ccccc1)c1ccccc1`
-11.8

Look up and state reported cytotoxicity at 10 µM for CS(=O)(=O)NCCC(=O)N1CCC(Cc2ccc(CO)cc2)C1 (stereo not drawn)
-5.77
